- Test Target: PDGFRα kinase (Homo sapiens, UniProt P16234)
- Construct: purchased Invitrogen
- Sequence (P16234 24-1089): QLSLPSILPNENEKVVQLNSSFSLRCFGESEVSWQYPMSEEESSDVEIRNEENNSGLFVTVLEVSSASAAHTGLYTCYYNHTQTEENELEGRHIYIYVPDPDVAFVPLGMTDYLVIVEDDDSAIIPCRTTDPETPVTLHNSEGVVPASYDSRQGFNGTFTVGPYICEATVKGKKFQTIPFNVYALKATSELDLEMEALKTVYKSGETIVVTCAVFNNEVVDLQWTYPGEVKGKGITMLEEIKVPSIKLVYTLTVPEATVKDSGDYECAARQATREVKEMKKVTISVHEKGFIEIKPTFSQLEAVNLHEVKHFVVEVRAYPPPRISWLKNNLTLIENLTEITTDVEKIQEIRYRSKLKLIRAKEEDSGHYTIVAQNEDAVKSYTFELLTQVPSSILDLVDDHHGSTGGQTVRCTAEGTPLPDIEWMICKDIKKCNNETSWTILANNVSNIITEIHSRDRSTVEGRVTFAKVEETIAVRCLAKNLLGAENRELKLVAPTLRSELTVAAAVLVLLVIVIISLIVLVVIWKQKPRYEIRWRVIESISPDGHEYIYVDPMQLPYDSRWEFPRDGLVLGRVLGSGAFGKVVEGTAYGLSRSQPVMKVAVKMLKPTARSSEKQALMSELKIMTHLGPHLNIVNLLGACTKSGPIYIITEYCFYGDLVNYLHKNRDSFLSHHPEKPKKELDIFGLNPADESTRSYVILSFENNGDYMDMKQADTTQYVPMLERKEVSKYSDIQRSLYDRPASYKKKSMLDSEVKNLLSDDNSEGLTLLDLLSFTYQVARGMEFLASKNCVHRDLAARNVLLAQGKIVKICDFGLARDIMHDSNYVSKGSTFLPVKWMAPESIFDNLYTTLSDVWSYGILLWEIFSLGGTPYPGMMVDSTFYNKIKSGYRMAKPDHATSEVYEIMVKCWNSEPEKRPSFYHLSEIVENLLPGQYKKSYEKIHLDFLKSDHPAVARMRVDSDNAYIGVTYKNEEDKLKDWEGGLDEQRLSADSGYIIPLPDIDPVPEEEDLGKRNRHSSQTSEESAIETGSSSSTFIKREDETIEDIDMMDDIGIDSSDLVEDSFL
- Measurement Protocol: PDGFRα Kinase Assay
- Assay type: biochemical
- Test Settings: read-out: PDGFRa Enzyme Assay
pIC50: −log10 of the molar value.
Measured Quantity: pIC50

| Smiles String | Measured Quantity | Measured Value |
| --- | --- | --- |
| Cc1ccc(NC(=O)C2(C(=O)Nc3ccc(Oc4ccnc(-c5cnn(C)c5)c4)cc3F)CC2)cc1 | pIC50 | > 5.00 |
| Cn1cc(-c2cc(Oc3ccc(NC(=O)C4(C(=O)Nc5ccc(F)cc5)CC4)c(F)c3F)ccn2)cn1 | pIC50 | > 6.70 |
| Cn1cc(-c2cc(Oc3cc(F)c(NC(=O)C4(C(=O)Nc5ccc(F)cc5)CC4)cc3Cl)ccn2)cn1 | pIC50 | > 6.70 |

// switching to the query compound
Give its pIC50 value. Item: O=C(Cc1ccc(F)cc1)NC(=O)Nc1ccc(Oc2ccnc(-c3nc(C(F)(F)F)c[nH]3)c2)cc1
> 6.70

###

- Test Target: KDR kinase (Seq ID No. 3) (Homo sapiens, UniProt P35968, DEL940-989/E990V)
- Sequence (P35968 with tags, fused parts or gaps DEL940-989/E990V): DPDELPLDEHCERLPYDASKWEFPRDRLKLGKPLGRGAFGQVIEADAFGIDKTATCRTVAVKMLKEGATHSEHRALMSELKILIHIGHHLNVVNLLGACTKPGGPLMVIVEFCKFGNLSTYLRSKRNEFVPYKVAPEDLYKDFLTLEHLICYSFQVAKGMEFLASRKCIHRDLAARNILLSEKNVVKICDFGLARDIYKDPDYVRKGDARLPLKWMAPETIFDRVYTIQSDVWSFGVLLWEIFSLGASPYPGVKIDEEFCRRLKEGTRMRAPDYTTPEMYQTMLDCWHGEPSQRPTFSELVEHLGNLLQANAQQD
- Measurement Protocol: KDR Kinase Assay (assays K1, K2, K3)
- Test Settings: assay variant K1, K2 or K3 not stated; read-out: KDR Enzyme Assay
Measured Quantity: IC50

Worked set:
| Compound | IC50 |
| --- | --- |
| Cc1nn(C)cc1-c1cc(Oc2cc(F)c(NC(=O)C3(C(=O)Nc4ccc(F)cc4)CC3)cc2F)ccn1 [Example 49] | < 2000 nM |
| Cn1cc(-c2cc(Oc3ccc(NC(=O)C4(C(=O)Nc5ccc(F)cc5)CC4)nc3)ccn2)cn1 [Example 41] | < 2000 nM |
| Cn1cc(-c2cc(Oc3ccc(NC(=O)C4(C(=O)Nc5cccc(C(F)(F)F)c5)CC4)cc3F)ccn2)cn1 [Example 6] | < 200 nM |
| Cn1cc(-c2ccnc(Oc3ccc(F)c(NC(=O)C4(C(=O)Nc5ccc(F)cc5)CC4)c3)n2)cn1 [Example 53] | < 10000 nM |
| Cn1cc(-c2cc(Oc3cc(F)c(NC(=O)C4(C(=O)Nc5ccc(F)cc5)CC4)cc3Cl)ccn2)cn1 [Example 47] | < 2000 nM |
| Cn1cc(-c2cc(Oc3ccc(NC(=O)C4(C(=O)Nc5ccc(F)cc5)CC4)c(F)c3)ccn2)cn1 [Example 7] | < 2000 nM |

// switching to the query compound
Item Cn1cc(-c2cc(Oc3cc(F)c(NC(=O)C4(C(=O)Nc5ccccc5)CC4)cc3F)ccn2)cn1 [Example 45] with KDR kinase (Seq ID No. 3) (Homo sapiens, UniProt P35968, DEL940-989/E990V) - IC50?
< 2000 nM

###

I'd appreciate it if you could supply IC50 values for the items below.
- Test Target: c-KIT kinase (Seq. ID no. 1) (Homo sapiens, UniProt P10721)
- Sequence (P10721 with tags, fused parts or gaps): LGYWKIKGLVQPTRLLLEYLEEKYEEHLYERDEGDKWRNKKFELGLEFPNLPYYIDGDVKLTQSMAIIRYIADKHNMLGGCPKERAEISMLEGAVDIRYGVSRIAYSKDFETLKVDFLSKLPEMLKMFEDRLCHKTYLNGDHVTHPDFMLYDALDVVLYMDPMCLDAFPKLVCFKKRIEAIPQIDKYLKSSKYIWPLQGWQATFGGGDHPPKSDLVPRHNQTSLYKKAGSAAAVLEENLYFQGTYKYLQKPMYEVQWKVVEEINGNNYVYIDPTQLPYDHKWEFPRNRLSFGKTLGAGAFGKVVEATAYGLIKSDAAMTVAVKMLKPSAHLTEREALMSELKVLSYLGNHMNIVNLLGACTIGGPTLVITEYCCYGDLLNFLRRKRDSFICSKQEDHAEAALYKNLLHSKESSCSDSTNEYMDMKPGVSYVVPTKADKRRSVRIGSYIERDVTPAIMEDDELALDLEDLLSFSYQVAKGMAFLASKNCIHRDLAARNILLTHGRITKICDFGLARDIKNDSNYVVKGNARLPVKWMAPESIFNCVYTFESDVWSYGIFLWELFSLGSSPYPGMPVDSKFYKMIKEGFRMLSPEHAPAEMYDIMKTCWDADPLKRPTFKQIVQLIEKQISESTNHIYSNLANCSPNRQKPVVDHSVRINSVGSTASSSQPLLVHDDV
- Measurement Protocol: c-KIT kinase Assay (ADP production, pyruvate kinase/lactate dehydrogenase coupled)
- Test Settings: read-out: cKIT Enzyme Assay

Worked set:
| Smiles String | IC50 |
| --- | --- |
| Cn1cc(-c2cc(Oc3cc(F)c(NC(=O)C4(C(=O)Nc5ccccc5)CC4)cc3F)ccn2)cn1 | < 200 nM |
| Cn1cc(-c2cc(Oc3cc(F)c(NC(=O)NC(=O)Cc4ccc(F)cc4)cc3Cl)ccn2)cn1 | < 200 nM |
| Cn1cc(-c2cc(Oc3cc(F)c(NC(=O)NC(=O)Cc4ccc(F)cc4)cc3F)ccn2)cn1 | < 200 nM |

Below is a list of compounds. For each, state its recorded IC50.
1. Cc1c(-c2cc(Oc3cc(F)c(NC(=O)C4(C(=O)Nc5ccc(F)cc5)CC4)cc3F)ccn2)cnn1C
2. Cn1cc(-c2cc(Oc3ccc(NC(=O)C4(C(=O)Nc5ccc(Cl)cc5)CC4)c(F)c3)ccn2)cn1
3. O=C(Nc1ccc(F)cc1)C1(C(=O)Nc2ccc(Oc3ccnc(-c4cnn(CCO)c4)c3)c(F)c2)CC1
4. Cn1cc(-c2cc(Oc3ccc(NC(=O)C4(C(=O)Nc5ccc(F)cc5)CC4)c(F)c3)ccn2)cn1

["< 200 nM", "< 2000 nM", "< 2000 nM", "< 10000 nM"]
